Source: ChEMBL document CHEMBL3507680

method: Human HepG2 cell viability assay in 384 well format
Assay type: toxicity, cell-based
Set-up: dose 125 nL, time 70.5 hour; concentration not given beside the values
test conditions: HepG2 cells, read-out: Inhibition
Assign cytotoxicity at 70.5 h to each entry below.
Field: numeric (%). Do not append units.

Requested read-out: cytotoxicity at 70.5 h. Entry: CC(C)CC(=O)N1Cc2ccccc2CC1C(=O)Nc1nccs1 (stereo not drawn)
-8.5

Return reported cytotoxicity at 70.5 h; argument: `CN1C(=O)[C@H](OC(N)=O)[C@@H](C(=O)Nc2ccccc2)C12CCNCC2`
-10.7

What does the record list as cytotoxicity at 70.5 h for CCC(CNC(=O)CCn1cncn1)N1CCc2ccccc2C1 (stereo not drawn) ?
7.08

Would you kindly share the measured cytotoxicity at 70.5 h for O=C(NC1CCCOc2cc(Cl)ccc21)c1ccc(=O)[nH]n1 (stereo not drawn) ?
-13.7

Give the measured cytotoxicity at 70.5 h of `CC(C)=CCN1C(=O)[C@H]2CC[C@@H]1CN(C(=O)CCc1n[nH]c(C)c1C)C2` .
11.2

State the recorded cytotoxicity at 70.5 h for this entry: CCCS(=O)(=O)N1CCCC(CCC(=O)N(C)CCc2ccccn2)C1 (stereo not drawn)
-0.331

I'd like to know its cytotoxicity at 70.5 h. The molecule in question is `COCc1nc(N2CC[C@H](N(C)C)C2)c2cnn(C)c2n1`
-10

Dear colleague, I am looking for the recorded cytotoxicity at 70.5 h of the following molecule: `CCN1Cc2cc(F)ccc2N(C(=O)C2CCC2)CCC1=O`
-9.67

Requested read-out: cytotoxicity at 70.5 h. Entry: `O=C(c1ncccn1)N1C[C@@H]2CN(Cc3cccnc3)CCO[C@@H]2C1`
-5.35

For CC(=O)N(Cc1noc(C2CC2)n1)C1CCN(Cc2ccccc2)C1 (stereo not drawn) , what is its reported cytotoxicity at 70.5 h?
-5.69

What value of cytotoxicity at 70.5 h has been reported for the following molecule? O=C(Cc1cn2ccccc2n1)N1CCCC(n2cccn2)C1 (stereo not drawn)
23.8

State the recorded cytotoxicity at 70.5 h for this entry: N#Cc1ccc(S(=O)(=O)NC(=O)C2CC(c3ccccc3)=NO2)cc1 (stereo not drawn)
-12.1

I'd like to know its cytotoxicity at 70.5 h. The molecule in question is `Cc1cc(CN(CC(N)=O)CC(C)C)on1`
18.1

Tell me the measured cytotoxicity at 70.5 h of CCC(C)C(=O)NCc1ccn(-c2ccc(F)cc2)n1 (stereo not drawn) , please.
8.14

Record request: cytotoxicity at 70.5 h value, item `CCc1ccc(CN(C/C=C/c2ccccc2)CCOC)nc1`
-2.77

Fill blank: measured cytotoxicity at 70.5 h of the molecule `CC(C)NC(=O)C[C@H]1[C@H]2CN(C(=O)Cc3ccccn3)C[C@@H]12` is ____.
1.47

Fill in the blank: the reported cytotoxicity at 70.5 h of `CCc1ccsc1C(=O)N1CCN(CCN2C(=O)CCC2=O)CC1` is ____.
-3.69

Give its cytotoxicity at 70.5 h value. Item: CC(=O)N1CCN(c2cc(C3CN(C(C)=O)CCO3)nc(C)n2)CC1 (stereo not drawn)
-4.45

Sample O=C(CN1CCCC1CC(=O)c1ccccc1)NCc1ccccn1 (stereo not drawn) — what was its cytotoxicity at 70.5 h?
4.93

I am curious: what cytotoxicity at 70.5 h value has been reported for `Cc1noc(C)c1CN1C[C@@H](NC(=O)N(C)C)[C@H](C(C)C)C1` ?
-6.75

Give the measured cytotoxicity at 70.5 h of `Cc1ccc(CCC(=O)N2CCOCC2)cc1Cl` .
-6.51

Which cytotoxicity at 70.5 h is reported for this molecule? `O=C(NCCCN1CCCCC1)c1n[nH]c(=O)c2ccccc12`
25

I'd like to know its cytotoxicity at 70.5 h. The molecule in question is `CCCn1cc(NC(=O)c2cccc3cccnc23)ccc1=O`
-17.8
